- STUDY TARGET: phosphomevalonate kinase (Streptococcus pneumoniae D39)
- PROTOCOL: S. pneumoniae PMK inhibitor potency, dose response, biochemical, mevalonate pathway, coupling enzyme counter-screen (AID 549)
- CONDITION SET: PK/LDH coupled NADH absorbance 340 nm
Activity calls are given as the source filed them.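 The calls were made as follows: active = clearly stronger inhibition of phosphomevalonate kinase than of the coupling enzymes alone in a parallel counterscreen; inactive = the rest.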
MEASURED METRIC: outcome

See these solved cases before continuing.
                                   compound                              study_target  measured_metric    result
0                CC(C)(C)c1ccccc1OCCCCCNCCO  phosphomevalonate kinase (Streptococcus pneumoniae D39)          outcome  inactive
1  CON(C)c1nc(OCCNC(=O)OCc2ccc(Cl)cc2Cl)nc(N(C)C)n1  phosphomevalonate kinase (Streptococcus pneumoniae D39)          outcome  inactive
2  CCOC(=O)c1ccc(NC(=O)CSc2nc(C)cc(=O)[nH]2)cc1  phosphomevalonate kinase (Streptococcus pneumoniae D39)          outcome  inactive
3  COc1ccccc1NC(=O)C1=C(C)NC2=C(C(=O)CCC2)C1c1ccc(C)o1 (configuration not stated)  phosphomevalonate kinase (Streptococcus pneumoniae D39)          outcome  inactive
4   O=c1c[n+]([O-])c2ccccc2n1OCc1c(F)cccc1F  phosphomevalonate kinase (Streptococcus pneumoniae D39)          outcome  inactive

Which outcome reading was recorded for the compound Cc1ccc(-n2nc3c(c2NC(=O)c2c(-c4ccccc4Cl)noc2C)CS(=O)(=O)C3)c(C)c1 ?
inactive

Which outcome reading was recorded for the compound CC12C=CC3(CN(Cc4ccccc4)C(=O)C3C1C(=O)NC1CC1)O2 (configuration not stated) ?
inactive

Which outcome reading was recorded for the compound CCOC(=O)N1CCN(C(=O)C2CCN(S(=O)(=O)N3CCCC3)CC2)CC1 ?
inactive

Which outcome reading was recorded for the compound Cc1nnc(SCC(=O)N2CC(=O)Nc3ccccc32)n1-c1ccccc1 ?
inactive

Recorded values, source PubChem BioAssay AID549.
